Hey, just so you know, these numbers are from PubChem BioAssay.

tested on: PRMT1 (protein arginine N-methyltransferase 1); assay: PRMT1 binders on small-molecule microarrays, primary screen, biochemical, small-molecule microarray, 635 nm fluorescence (AID 1088); conditions: small-molecule microarray binding, higher = more signal
# reported composite z-score; entries follow
measure.name: composite z-score

- compound: "COCCOC(=O)N1C(=O)[C@@]2(c3cc(C#CCC(C(=O)OC)C(=O)OC)ccc31)[C@H](C(=O)NC[C@H](O)c1ccccc1)[C@H]1C(=O)O[C@H](c3ccccc3)[C@H](c3ccccc3)N1[C@@H]2c1ccc(OCCO)cc1"
  measure.name: "composite z-score"
  result: 1.56
- compound: "C=CCNC(=O)[C@H]1[C@@H]2C(=O)O[C@@H](c3ccccc3)[C@@H](c3ccccc3)N2[C@@H](c2ccc(O)cc2)[C@]12C(=O)N(C(=O)OCCOC)c1ccc(C#CCC(C(=O)OC)C(=O)OC)cc12"
  measure.name: "composite z-score"
  result: 1.56
- compound: "O=C1[C@@]23C=C(Br)[C@H](C[C@@H]2COC3)[C@@]12CO2"
  measure.name: "composite z-score"
  result: -0.186
- compound: "CN1C(=O)C2C=CC(C(O)c3cc(C(F)(F)F)cc(C(F)(F)F)c3)N(Nc3ccccc3)C2C1=O (stereo unspecified)"
  measure.name: "composite z-score"
  result: 0.237
- compound: "CN(C)C(=O)[C@@]1(CCC(=O)OC(C)(C)C)N=C(c2ccc(OCCCO)cc2)O[C@H]1c1ccccc1CN=[N+]=[N-]"
  measure.name: "composite z-score"
  result: 1.51
- compound: "CO[C@H]1O[C@H](CO)[C@@H](OC(=O)CCc2ccccc2)[C@H](OC(=O)c2cc3ccccc3[nH]2)[C@H]1OC(=O)c1cc2ccccc2[nH]1"
  measure.name: "composite z-score"
  result: 1.38
